Reported Na/T values are given for each entry in this list.
- Tested on: INa in rat DRG
- assay: Inhibition of INa current in dissociated rat DRG neurons
- Assay type: cell-based
- condition.summary: ratio of INa IC50 to T-type IC50

molecule="CC(C)(C)NC(=O)CN1CCC2(CC1)CC2NC(=O)c1cc(F)cc(Cl)c1 (centres unmarked)" result=>1115

CC(C)(C)NC(=O)CN1CCC(CNC(=O)c2cc(F)cc(Cl)c2)CC1 [AFA-258, reference compound] has a reported Na/T of >513

Briefly, Na/T measured for O=C(NC1CC12CCN(S(=O)(=O)c1ccc(C(F)(F)F)cc1)CC2)c1cc(C(F)(F)F)cc(C(F)(F)F)c1 (centres unmarked) : >30

Entry `C[C@H]1CN(S(=O)(=O)c2ccc(C(F)(F)F)cc2)CCN1C(=O)c1ccc2cccnc2c1` , Na/T reported as >10

The reported Na/T of the molecule CC(C)(C)CCN1CCC2(CC1)CC2N(CC1CC1)C(=O)c1cc(Cl)cc(Cl)c1 (centres unmarked) was 303
